From: PubChem BioAssay (NCATS)

target: Retinaldehyde dehydrogenase 3 (Homo sapiens) (UniProt P47895); assay: qHTS for Inhibitors of the Aldehyde Dehydrogenase Family (ALDH1A3) Primary screen (AID 2061315); details: ALDH inhibition qHTS; series mostly up to 56 µM
Inconclusive results are not listed. Activity calls are given as the source filed them. Calls come from the whole dose curve; as a rule, active = well fitted inhibition curve with a large enough effect; inconclusive = small, poorly fitted or top-dose-only effect; inactive = no such curve, though single readings can be large or run the other way.
outcomeMeasure: activity change, negative = inhibition

• Cc1cnc(NC(=O)c2ccc(-c3cccc([N+](=O)[O-])c3)o2)s1 = inactive
• CC(C)(C)OC(=O)Cc1nnc(C(C(=O)OCc2ccccc2)c2ccccc2)o1 (stereo not given) = inactive
• O=C(O)c1ccc2c(c1)C(=O)N([C@H](Cc1ccc(-c3ccccc3)cc1)C(=O)O)C2=O = inactive
• CN1C(=O)CCc2cc(S(=O)(=O)Nc3ccc(Cl)c(Cl)c3)ccc21 = inactive
• CS(=O)(=O)c1ccc(C(=O)OCC#CCSc2nnc(-c3cccc4ccccc34)o2)cc1 = inactive
